Target: T1, cynomolgus PVRIG on cells (cynomolgus, UniProt A0A2K5WVV8 41-322)
T1 construct: whole, on cells; also called cPVRIG; expi cPVRIG cells
T1 sequence: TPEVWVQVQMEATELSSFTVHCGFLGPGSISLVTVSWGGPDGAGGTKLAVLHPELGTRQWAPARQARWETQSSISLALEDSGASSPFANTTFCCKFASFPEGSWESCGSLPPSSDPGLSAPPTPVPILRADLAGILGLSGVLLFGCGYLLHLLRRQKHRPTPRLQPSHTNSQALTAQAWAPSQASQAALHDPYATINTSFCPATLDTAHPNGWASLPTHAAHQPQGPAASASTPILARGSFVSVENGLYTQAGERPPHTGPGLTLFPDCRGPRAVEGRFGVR
Assay: FACS, expi cPVRIG over expi parental cells, 3.3ug/ml
Listed here: items and their measured gMFIr Expi cyno OE/par.
Please give only the number in your answer, with no unit.

Please review the entries below; each comes with its answer.
CHA.7.502 (antibody, V domains shown) VH: DVQLVESGGDLVQPGGSRKLSCTASGFTFSNFGMHWVRQAPEKGLEWVAYISSGSSTIYYADTVKGRFTISRDNPENTLFLQMTSLRSEDTAMYYCTRLDYYTNSYSMDHWGQGTSVTVSS VL: QIVLTQSPALMSASPGEKVTLTCSASSSLPYIYWYQQKPGSSPKPWIYLTSNLASGVPARFSGSRSGTSYSLTISSVEAEDAATYYCQQWSSNPFTFGSGTKLEIK: 60.5
CHA.7.508 (antibody, V domains shown) VH: EVQLQQSGPDLVKPGASMKISCKASGYTFIDYNIHWVKQSQGKSLDWIGYIYPYNGGTGYNQKFKNKATLTVDSSSSTAYMEVRSLTFEDSAVYFCAREADYYGNRGQFDYWGQGTLVTVSA VL: DIQMTQSPASLSVSVGETVTITCRASENIFSNLAWYQQKQGKSPQLLVYGEANLADGVPSRFSGSGSGTQYSLKINSLQSEDFGNYYCQHFWGTPYTFGGGTTLEIK: 41.5

# ---- query binder ----
Reported gMFIr Expi cyno OE/par, binder CHA.7.506 (antibody, V domains shown) VH: QVQLQQSGAELTRPGASVNLSCKASGYTFTSYWMQWVKQRPGQGLEWIGAIYPGDGDTRFNQKFKGKATLTADESSSTAYMQLSSLASEDSAVYYCATYYRYDDYWGQGTTLTVSS VL: QIVLTQSPAIMSASPGEKVTMTCSASSSVSYMHWYQQKSGTSPKRWIYDTSKLASGVPTRFSGSGSGTSYSLTISSMEAEDAATYYCQQWSSNPYTFGGGTKLEIK : ____
0.77
